- Test system: 292921-168-R-J2-PDC complex spheroid growth;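 note: spheroids exposed to compounds for seven days after three days of growth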
- Protocol Details: Anticancer human tumor 292921-168-R-J2-PDC patient-derived pancreatic carcinoma cell line growth inhibition [AhR]
- Assay Setup: second compound 1 µM; first compound 0.316 µM; active compounds read low
Measured Metric: viability, T/C (%)
Give a bare numeral; the unit % is implied.

{"Compound": "O=C(c1cc(Cc2n[nH]c(=O)c3ccccc23)ccc1F)N1CCN(C(=O)C2CC2)CC1 + Cc1cncc(-c2nc(NCCc3c[nH]c4ccccc34)c3ncn(C(C)C)c3n2)c1", "Assay Target": "292921-168-R-J2-PDC complex spheroid growth", "viability, T/C / %": 80.6}
{"Compound": "COc1ccc([C@@H](O)c2cc(-c3ncnc4cc(N5CCOCC5)ccc34)c(F)cc2Cl)nn1 + CC(CO)NC(=O)c1cc(-c2ccc(Cl)cc2)nn(-c2cnn(C)c2)c1=O", "Assay Target": "292921-168-R-J2-PDC complex spheroid growth", "viability, T/C / %": 78.4}

Q) // returns reported viability, T/C for input Nc1ncn(C2CC(O)C(CO)O2)c(=O)n1 (stereo not drawn) + Cc1cncc(-c2nc(NCCc3c[nH]c4ccccc34)c3ncn(C(C)C)c3n2)c1
A) 82
